target: Bone morphogenetic protein 1 (Homo sapiens, UniProt P13497); assay: Inhibitory activity against procollagen C-Proteinase (PCP).
Sequence (P13497 whole entry): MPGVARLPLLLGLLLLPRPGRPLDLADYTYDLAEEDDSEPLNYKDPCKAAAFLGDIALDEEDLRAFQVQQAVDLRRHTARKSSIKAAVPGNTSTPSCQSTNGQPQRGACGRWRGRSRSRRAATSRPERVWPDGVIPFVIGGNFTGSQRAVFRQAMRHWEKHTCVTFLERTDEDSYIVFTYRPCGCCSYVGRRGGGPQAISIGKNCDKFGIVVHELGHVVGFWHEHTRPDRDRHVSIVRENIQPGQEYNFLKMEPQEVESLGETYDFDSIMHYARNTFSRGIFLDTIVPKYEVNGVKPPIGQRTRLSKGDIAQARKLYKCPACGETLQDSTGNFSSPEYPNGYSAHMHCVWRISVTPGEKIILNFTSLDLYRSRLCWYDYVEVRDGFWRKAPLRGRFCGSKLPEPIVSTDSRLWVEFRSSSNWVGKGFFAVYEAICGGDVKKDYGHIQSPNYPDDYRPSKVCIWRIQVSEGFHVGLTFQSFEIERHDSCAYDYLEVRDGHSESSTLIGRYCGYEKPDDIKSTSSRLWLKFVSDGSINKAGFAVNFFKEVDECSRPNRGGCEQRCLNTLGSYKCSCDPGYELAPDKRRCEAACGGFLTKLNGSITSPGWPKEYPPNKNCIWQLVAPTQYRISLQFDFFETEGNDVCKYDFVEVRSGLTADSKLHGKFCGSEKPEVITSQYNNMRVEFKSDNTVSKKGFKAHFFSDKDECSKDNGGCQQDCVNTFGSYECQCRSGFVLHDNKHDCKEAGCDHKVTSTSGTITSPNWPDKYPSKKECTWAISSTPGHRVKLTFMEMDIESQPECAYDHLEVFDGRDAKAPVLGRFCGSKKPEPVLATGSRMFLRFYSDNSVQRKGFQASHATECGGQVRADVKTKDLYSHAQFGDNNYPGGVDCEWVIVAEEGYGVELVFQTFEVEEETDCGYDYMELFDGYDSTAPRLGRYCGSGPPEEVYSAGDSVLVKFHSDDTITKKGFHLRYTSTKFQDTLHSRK
property_measured: IC50 (nM)

A selection of reference data follows.
molecule	IC50 [nM]
COc1ccc(S(=O)(=O)N[C@@H](CCCNC(=O)NC2CC2c2ccccc2)C(=O)NO)cc1 (stereo not given in full)	290
C[C@@H](NC(=O)NCCC[C@@H](NS(=O)(=O)c1ccc(Cl)cc1)C(=O)NO)c1ccccc1	910

A = COc1ccc(S(=O)(=O)N[C@H](CCCNC(=O)N[C@H](C)c2ccccc2)C(=O)NO)cc1
B = COc1ccc(S(=O)(=O)N(C)[C@H](CCCNC(=O)Nc2ccccc2Cl)C(=O)NO)cc1
C = COc1ccc(S(=O)(=O)N[C@H](CCCNC(=O)Nc2ccccc2C)C(=O)NO)cc1
D = COc1ccc(S(=O)(=O)N[C@@H](CCCNC(=O)NC2CCCCC2)C(=O)NO)cc1
E = COc1ccc(S(=O)(=O)N(C)[C@H](CCCNC(=O)Nc2ccccc2)C(=O)NO)cc1
Arrange items by their IC50 values in increasing order. Would you mind listing the labels in the order asked for?
A, C, E, D, B
(A: 110 nM, C: 260 nM, E: 1600 nM, D: 3600 nM, B: 7200 nM)

P = COc1ccc(S(=O)(=O)N(Cc2ccc3c(c2)OCO3)[C@H](CCCNC(=O)OCc2ccc([N+](=O)[O-])cc2)C(=O)NO)cc1
Q = COc1ccc(S(=O)(=O)N[C@H](CCCNC(=O)CCc2ccccc2)C(=O)NO)cc1
R = COC(=O)[C@@H](Cc1ccccc1)NC(=O)NCCC[C@@H](NS(=O)(=O)c1ccc(OC)cc1)C(=O)NO
S = COc1ccc(S(=O)(=O)N(C)[C@H](CCCNC(=O)NC(C)c2ccccc2)C(=O)NO)cc1 (stereo not given in full)
T = COc1ccc(S(=O)(=O)N[C@H](CCCNC(=O)C(C)C)C(=O)NO)cc1
Arrange these molecules by their IC50, starting with the largest number. Would you mind listing the labels in the order asked for?
S, T, Q, R, P

P = COc1ccc(S(=O)(=O)N(Cc2ccc3c(c2)OCO3)[C@H](CCCNC(=O)OCC(C)C)C(=O)NO)cc1
Q = COc1ccc(S(=O)(=O)N[C@H](CCC/N=C(\S)NC2CCCCC2)C(=O)NO)cc1
R = COc1ccc(S(=O)(=O)N[C@H](CCCNC(=O)N[C@@H]2C[C@H]2c2ccccc2)C(=O)NO)cc1
S = COc1ccc(S(=O)(=O)N[C@H](CCCNC(=S)NCc2ccccc2)C(=O)NO)cc1
T = COc1ccc(S(=O)(=O)N[C@@H](CCCNC(=O)Nc2cccc(F)c2)C(=O)NO)cc1
Arrange these molecules by their IC50, starting with the largest number. Would you mind listing the labels in the order asked for?
T, Q, S, R, P

###

molecular target: Bone morphogenetic protein 1 (Homo sapiens); experiment: Inhibitory activity against procollagen C-Proteinase (PCP).
property_measured: IC50 (nM)

COc1ccc(S(=O)(=O)N(Cc2ccc3c(c2)OCO3)[C@H](CCCNC(=O)OCc2ccccc2)C(=O)NO)cc1 9
COc1ccc(S(=O)(=O)N[C@H](CCCNC(=O)C2CC2)C(=O)NO)cc1 770
COc1ccc(S(=O)(=O)N(Cc2ccc3c(c2)OCO3)[C@H](CCCNC(=O)c2ccccc2)C(=O)NO)cc1 98

A = COc1ccc(S(=O)(=O)N[C@H](CCCNC(=O)NCCc2cccs2)C(=O)NO)cc1
B = COC(=O)[C@@H](Cc1ccccc1)NC(=O)NCCC[C@H](NS(=O)(=O)c1ccc(OC)cc1)C(=O)NO
# min-compare on IC50 between A and B When you have decided, please share the label of that item.
A

I = COc1ccc(S(=O)(=O)N(Cc2ccc3c(c2)OCO3)[C@H](CCCNC(=O)OCc2ccccc2Cl)C(=O)NO)cc1
II = COc1ccc(S(=O)(=O)N[C@H](CCCNC(=O)Nc2cccc(F)c2)C(=O)NO)cc1
# min-compare on IC50 between I and II When you have decided, please share the label of that item.
I

I = COc1ccc(S(=O)(=O)N(Cc2ccc3c(c2)OCO3)[C@H](CCCNC(=O)NCc2cccc(C)c2)C(=O)NO)cc1
II = COc1ccc(S(=O)(=O)N(Cc2ccc3c(c2)OCO3)[C@H](CCCNC(=O)OCc2ccccc2Br)C(=O)NO)cc1
# min-compare on IC50 between I and II When you have decided, please share the label of that item.
II

A = COc1ccc(S(=O)(=O)N[C@H](CCCNS(=O)(=O)c2ccccc2)C(=O)NO)cc1
B = C[C@@H](NC(=O)NCCC[C@@H](NS(=O)(=O)c1ccc(Cl)s1)C(=O)NO)c1ccccc1
C = COc1ccc(S(=O)(=O)N(Cc2ccc3c(c2)OCO3)[C@H](CCCNC(=O)NCc2cccc3ccccc23)C(=O)NO)cc1
Arrange items by their IC50 values in increasing order. Would you mind listing the labels in the order asked for?
C, A, B
